Measured values drawn from patent US9655904B2 for this set.

- assay-system: TLR8 (Homo sapiens, UniProt Q9NR97)
- Sequence (Q9NR97 27-1041): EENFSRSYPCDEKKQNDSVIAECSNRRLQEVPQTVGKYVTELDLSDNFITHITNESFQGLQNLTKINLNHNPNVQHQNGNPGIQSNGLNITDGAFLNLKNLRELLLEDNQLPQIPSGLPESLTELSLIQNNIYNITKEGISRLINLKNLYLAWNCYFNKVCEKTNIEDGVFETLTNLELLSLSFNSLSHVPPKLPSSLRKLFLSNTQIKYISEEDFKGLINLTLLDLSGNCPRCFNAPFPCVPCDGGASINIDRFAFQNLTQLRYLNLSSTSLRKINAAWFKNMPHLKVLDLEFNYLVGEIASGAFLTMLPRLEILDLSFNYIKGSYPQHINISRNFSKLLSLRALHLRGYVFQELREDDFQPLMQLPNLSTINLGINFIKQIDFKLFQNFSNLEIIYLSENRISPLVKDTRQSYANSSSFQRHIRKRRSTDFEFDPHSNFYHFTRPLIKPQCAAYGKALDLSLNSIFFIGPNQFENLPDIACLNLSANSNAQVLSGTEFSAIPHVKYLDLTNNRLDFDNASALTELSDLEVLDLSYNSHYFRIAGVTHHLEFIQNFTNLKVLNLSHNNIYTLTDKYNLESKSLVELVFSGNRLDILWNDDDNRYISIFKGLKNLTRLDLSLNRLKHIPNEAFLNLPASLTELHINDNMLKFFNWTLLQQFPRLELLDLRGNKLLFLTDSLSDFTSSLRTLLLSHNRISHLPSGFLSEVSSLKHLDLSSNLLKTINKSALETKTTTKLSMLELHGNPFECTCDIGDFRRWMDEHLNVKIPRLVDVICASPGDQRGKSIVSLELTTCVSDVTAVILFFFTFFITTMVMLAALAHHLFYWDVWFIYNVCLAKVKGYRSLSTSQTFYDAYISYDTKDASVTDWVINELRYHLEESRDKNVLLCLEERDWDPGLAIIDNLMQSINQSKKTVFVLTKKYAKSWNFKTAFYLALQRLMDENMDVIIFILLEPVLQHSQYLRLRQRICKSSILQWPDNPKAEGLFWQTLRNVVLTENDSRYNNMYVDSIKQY
- assay-overview: MC50 values for TLR8 activity (test not specified; procedures of Gorden et al. and Zhu et al.)
- Type: cell-based
In this section, each of the compounds is paired with its reported log10 EC50.
All values: base-10 log of EC50 in nM.

{"compound": "CCCN(CCCO)C(=O)C1=Cc2ccc(-c3ccc4c(c3)C(=O)OC4)cc2N=C(N)C1 [Compound 222]", "log10 EC50": 1.52}
{"compound": "CCCN(CCCO)C(=O)C1=Cc2ccc(-c3ccc(CC(=O)OCC)cc3)cc2N=C(N)C1 [Compound 214]", "log10 EC50": 1.73}
{"compound": "CCCN(CCC)C(=O)C1=Cc2ccc(-c3ccc(C4CCOC4=O)cc3)cc2N=C(N)C1 (centres unmarked) [Compound 223]", "log10 EC50": 2.29}
{"compound": "CCCN(CCC)C(=O)C1=Cc2ccc(-c3cncc(CO)c3)cc2N=C(N)C1 [Compound 183]", "log10 EC50": 0.90}

Input CCCN(CCC)C(=O)C1=Cc2ccc(-c3ccc(C(O)CO)cc3)cc2N=C(N)C1 (centres unmarked) [Compound 224] . Output log10 EC50: 2.56
